# collection of pIC50 values tested on full length KDM5A enzyme (Homo sapiens (Human), UniProt P29375)
# Sequence (P29375 whole entry): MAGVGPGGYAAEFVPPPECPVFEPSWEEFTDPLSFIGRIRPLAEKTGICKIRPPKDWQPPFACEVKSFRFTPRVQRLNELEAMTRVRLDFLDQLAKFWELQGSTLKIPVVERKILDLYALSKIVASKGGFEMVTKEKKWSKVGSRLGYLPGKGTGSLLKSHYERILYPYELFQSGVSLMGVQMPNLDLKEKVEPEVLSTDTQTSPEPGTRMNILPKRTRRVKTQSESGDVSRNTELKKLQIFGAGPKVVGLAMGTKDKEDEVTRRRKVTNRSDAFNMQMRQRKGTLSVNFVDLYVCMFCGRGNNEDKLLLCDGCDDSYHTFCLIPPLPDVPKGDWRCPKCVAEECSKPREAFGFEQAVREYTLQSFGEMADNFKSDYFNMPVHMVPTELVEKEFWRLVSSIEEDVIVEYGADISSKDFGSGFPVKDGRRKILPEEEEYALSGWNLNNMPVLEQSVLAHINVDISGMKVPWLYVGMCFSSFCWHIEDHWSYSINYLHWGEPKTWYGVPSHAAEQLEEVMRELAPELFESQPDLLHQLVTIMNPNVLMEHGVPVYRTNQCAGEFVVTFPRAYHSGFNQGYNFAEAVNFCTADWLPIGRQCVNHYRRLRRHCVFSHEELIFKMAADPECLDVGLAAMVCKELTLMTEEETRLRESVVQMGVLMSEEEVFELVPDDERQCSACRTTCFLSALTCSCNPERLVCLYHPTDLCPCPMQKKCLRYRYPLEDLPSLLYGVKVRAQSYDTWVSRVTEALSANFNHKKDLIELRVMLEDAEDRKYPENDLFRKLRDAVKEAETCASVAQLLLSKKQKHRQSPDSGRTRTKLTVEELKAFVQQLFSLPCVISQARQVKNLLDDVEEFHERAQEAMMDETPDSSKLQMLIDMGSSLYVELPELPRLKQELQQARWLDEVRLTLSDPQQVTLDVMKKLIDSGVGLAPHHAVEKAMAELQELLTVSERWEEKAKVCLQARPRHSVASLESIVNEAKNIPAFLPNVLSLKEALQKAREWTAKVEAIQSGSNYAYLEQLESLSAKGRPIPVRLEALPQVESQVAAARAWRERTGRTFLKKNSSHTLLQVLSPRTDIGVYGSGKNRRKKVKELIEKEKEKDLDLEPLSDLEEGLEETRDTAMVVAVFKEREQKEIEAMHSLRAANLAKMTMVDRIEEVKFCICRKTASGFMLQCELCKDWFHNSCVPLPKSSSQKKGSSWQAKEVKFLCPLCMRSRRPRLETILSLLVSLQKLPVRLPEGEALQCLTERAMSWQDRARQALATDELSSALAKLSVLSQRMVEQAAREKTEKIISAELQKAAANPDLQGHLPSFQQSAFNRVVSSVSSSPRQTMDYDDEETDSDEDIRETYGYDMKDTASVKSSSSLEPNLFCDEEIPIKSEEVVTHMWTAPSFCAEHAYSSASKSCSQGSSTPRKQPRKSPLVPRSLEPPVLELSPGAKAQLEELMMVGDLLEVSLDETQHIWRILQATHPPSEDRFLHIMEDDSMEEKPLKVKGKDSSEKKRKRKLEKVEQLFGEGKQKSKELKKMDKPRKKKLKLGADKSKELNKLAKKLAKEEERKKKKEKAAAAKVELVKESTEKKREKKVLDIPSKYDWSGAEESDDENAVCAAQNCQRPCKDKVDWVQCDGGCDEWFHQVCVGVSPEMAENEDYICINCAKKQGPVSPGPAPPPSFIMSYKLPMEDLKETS
Lab note: report pIC50 as minus log10 of the concentration in molar units, number only.

## Task Look up pIC50 with full length KDM5A enzyme (Homo sapiens (Human), UniProt P29375) for this molecule: COCC(C)c1cc(C(=O)N2CCC(NC(=O)C3CC3)C2)[nH]n1 (centres unmarked)
## Result 9.03

## Task Lookup: pIC50 / full length KDM5A enzyme (Homo sapiens (Human), UniProt P29375) / CC(C)c1cc(C(=O)N2CCC(NC(=O)c3ccc4[nH]ccc4c3)C2)[nH]n1 (centres unmarked)
## Result 10.18

## Task Identify the measured pIC50 of CNC(=O)c1cc(C)nc(C2CCN(C(=O)c3cc(C(C)C)n[nH]3)C2)c1 (centres unmarked) for full length KDM5A enzyme (Homo sapiens (Human), UniProt P29375).
## Result 8.38

## Task What reported pIC50 corresponds to Cc1cc(-c2cn[nH]c2)cc(C2CCN(C(=O)c3cc(C(C)C)n[nH]3)C2)n1 (centres unmarked) on full length KDM5A enzyme (Homo sapiens (Human), UniProt P29375)?
## Result 9.68

## Task Value wanted: pIC50 (full length KDM5A enzyme (Homo sapiens (Human), UniProt P29375)) of entry CC(C)c1cc(C(=O)N2CCC(c3cc(-c4cnn(C)c4)cc(N)n3)C2)[nH]n1 (centres unmarked)
## Result 9.89

## Task Form entry - test system: full length KDM5A enzyme (Homo sapiens (Human), UniProt P29375); read-out: pIC50; molecule: Cc1cc(-c2cnn(Cc3ccccc3)c2)cc(C2CCN(C(=O)c3cc(C(C)C)n[nH]3)C2)n1 (centres unmarked)
## Result 9.96

## Task Hello, I am looking for reported pIC50 with full length KDM5A enzyme (Homo sapiens (Human), UniProt P29375) for O=C(NC1CCN(C(=O)c2cc(C3CC3)n[nH]2)C1)C1CC1 (centres unmarked) . Could you help?
## Result 9.72

## Task Form field - read-out: pIC50; system: full length KDM5A enzyme (Homo sapiens (Human), UniProt P29375); submitted item: Cn1cnc(C(=O)N2CCC(NC(=O)C3CC3)C2)c1 (centres unmarked)
## Result 8.66
